ASSAY_SUMMARY: NCI Yeast Anticancer Drug Screen. Data for the rad50 strain (AID 155);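 note: 0% = growth of vehicle-only cultures of the same strain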
CONDITIONS_USED: S. cerevisiae rad50 strain growth inhibition; at 50.0 µM; stronger effect = higher value
The panel holds about 79,000 compounds, 15% with a hit somewhere; the sample as a whole holds those more often.
Classify by measured growth inhibition: true if it is equal to or exceeds 10%, false if it is smaller.

// known answers, use as guide
* Cc1cccc(Oc2ccc(C(F)(F)F)cc2[N+](=O)[O-])c1C | false
* O=C1Nc2ccccc2C2Cc3c([nH]c4ccccc34)CC12 (stereo unspecified) | true
* CC(C)CCC[C@@H](C)[C@H]1CC[C@H]2[C@@H]3CC[C@H]4N(C)[C@@H](Cc5ccccc5)CC[C@]4(C)[C@H]3CC[C@]12C | true
* CCOC(OCC)C(N)C(=O)O (stereo unspecified) | false

Ask: Check the entry COc1cccc(OC)c1OCC1CO1 (stereo unspecified) : does growth inhibition equal or exceed 10%?
Result: false

Ask: Check the entry CCOC(=O)c1cc(C)nc2c(Cl)cc(Cl)cc12 : does growth inhibition equal or exceed 10%?
Result: true

Ask: Check the entry CC(=O)/C(=C/n1ccc(=O)[nH]c1=S)C(=O)Nc1ccccc1 : does growth inhibition equal or exceed 10%?
Result: false

Ask: Check the entry O=C(O)C1C2CCC(O2)C1C(=O)NCc1cccnc1 (stereo unspecified) : does growth inhibition equal or exceed 10%?
Result: true

Ask: Check the entry CCOC(=O)C1CC(=O)N(Cc2ccccc2)C(=O)N1 (stereo unspecified) : does growth inhibition equal or exceed 10%?
Result: false

Ask: Check the entry CCN(CC)CCCC(C)Nc1cc(C)nc(Nc2nc3cc(Cl)c(Cl)cc3[nH]2)n1 (stereo unspecified) : does growth inhibition equal or exceed 10%?
Result: true

Ask: Check the entry Cc1ccc([N+](=O)[O-])cc1NC(=O)NCCO : does growth inhibition equal or exceed 10%?
Result: false

###

ASSAY_SUMMARY: NCI Yeast Anticancer Drug Screen. Data for the mec2-1 strain (AID 157)
CONDITIONS_USED: S. cerevisiae mec2-1 strain, at 50.0 µM
This is part of a sample that, as a whole, favours compounds with a hit. Of some 79,000 tested, about 15% had one in any assay. Activity calls are given as the source filed them. Rule as the data show it: active = growth inhibition above about 70%; inactive = the rest.
Permitted responses: 1 = active, -1 = inactive

// known answers, use as guide
• Cc1ccc(O)cc1C=C(Cl)Cl = -1
• CCc1cc(CN2CCN(CCO)CC2)c(O)c(CN2CCN(CCO)CC2)c1 = -1
• CCCCCOC(=O)OC(C)CNC(=O)C(C)OC(=O)OCCCCC (stereo not drawn) = -1

Ask: Just curious, what result did COc1cc2c(cc1O)C(C)C(c1ccccc1)O2 (stereo not drawn) get here?
Result: -1

###

ASSAY_SUMMARY: NCI Yeast Anticancer Drug Screen. Data for the rad50 strain (AID 155);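 note: 0% = growth of vehicle-only cultures of the same strain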
CONDITIONS_USED: S. cerevisiae rad50 strain growth inhibition; at 50.0 µM
About 79,000 compounds went through this panel and 15% of them were active in at least one assay; those are over-represented in the sample as a whole. The source made the active and inactive calls. Cut-off read from the data, not from the text of the source: active = growth inhibition above about 70%; inactive = the rest.
Permitted responses: Yes for active, No for inactive

- Cc1nc(N)[nH]c(=O)c1Cc1ccc(Cl)cc1Cl: No

Could you now look at the following molecule, please?
Ask: Just curious, what result did Cc1ccc(S(=O)(=O)N2CCSCCSCCSCCN(S(=O)(=O)c3ccc(C)cc3)CC2)cc1 get here?
Result: No
